Target: Lysine-specific demethylase 2A (Homo sapiens)
Sequence (Q9Y2K7 whole entry): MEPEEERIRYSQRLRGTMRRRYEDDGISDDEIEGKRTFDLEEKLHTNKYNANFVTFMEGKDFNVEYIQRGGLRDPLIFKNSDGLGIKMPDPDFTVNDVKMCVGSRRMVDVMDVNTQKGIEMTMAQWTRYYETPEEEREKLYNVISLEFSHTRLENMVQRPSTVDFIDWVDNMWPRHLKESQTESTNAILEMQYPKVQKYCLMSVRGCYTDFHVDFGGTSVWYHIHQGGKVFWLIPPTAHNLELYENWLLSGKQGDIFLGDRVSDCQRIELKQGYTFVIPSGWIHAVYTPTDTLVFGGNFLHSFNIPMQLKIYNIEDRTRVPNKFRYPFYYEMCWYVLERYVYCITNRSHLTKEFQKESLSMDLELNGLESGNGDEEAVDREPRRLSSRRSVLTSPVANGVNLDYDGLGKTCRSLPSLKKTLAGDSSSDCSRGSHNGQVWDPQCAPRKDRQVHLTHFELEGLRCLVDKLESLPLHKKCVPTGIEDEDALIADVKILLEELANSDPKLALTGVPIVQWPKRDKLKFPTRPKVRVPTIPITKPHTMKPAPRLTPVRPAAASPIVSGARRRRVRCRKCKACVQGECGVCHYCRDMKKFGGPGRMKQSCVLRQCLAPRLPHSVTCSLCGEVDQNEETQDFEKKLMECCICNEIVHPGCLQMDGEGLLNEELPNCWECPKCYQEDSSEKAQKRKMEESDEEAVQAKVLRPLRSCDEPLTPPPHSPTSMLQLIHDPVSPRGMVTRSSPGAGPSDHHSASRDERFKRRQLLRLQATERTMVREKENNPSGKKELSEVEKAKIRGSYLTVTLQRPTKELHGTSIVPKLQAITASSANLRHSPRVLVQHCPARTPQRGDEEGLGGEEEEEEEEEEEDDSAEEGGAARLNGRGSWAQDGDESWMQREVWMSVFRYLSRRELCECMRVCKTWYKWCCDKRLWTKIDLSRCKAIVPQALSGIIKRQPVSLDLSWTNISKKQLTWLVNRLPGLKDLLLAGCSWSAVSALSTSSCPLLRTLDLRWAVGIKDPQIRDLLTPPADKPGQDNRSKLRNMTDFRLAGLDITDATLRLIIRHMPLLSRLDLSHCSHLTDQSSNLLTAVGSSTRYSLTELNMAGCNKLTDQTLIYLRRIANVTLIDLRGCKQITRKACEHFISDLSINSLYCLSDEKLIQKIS
Assay: Binding affinity to recombinant 6xHis-tagged JHDM1A (unknown origin) expressed in Escherichia coli BL21 by fluorescence polarization assay in presence of Fe2+ and sodium ascorbate
Recorded endpoint: pKd
# reply with the number alone; pKd is -log10 of concentration in mol/L

// Input: NCc1ccc(CN(CCCCN(O)C(=O)/C=C/C(=O)O)C(=S)Nc2ccc(-c3c4ccc(=O)cc-4oc4cc(O)ccc34)c(C(=O)O)c2)cc1 . Output its pKd only. 8.07

====

Biological target: Lysine-specific demethylase 2A (Homo sapiens, UniProt Q9Y2K7)
Sequence (Q9Y2K7 whole entry): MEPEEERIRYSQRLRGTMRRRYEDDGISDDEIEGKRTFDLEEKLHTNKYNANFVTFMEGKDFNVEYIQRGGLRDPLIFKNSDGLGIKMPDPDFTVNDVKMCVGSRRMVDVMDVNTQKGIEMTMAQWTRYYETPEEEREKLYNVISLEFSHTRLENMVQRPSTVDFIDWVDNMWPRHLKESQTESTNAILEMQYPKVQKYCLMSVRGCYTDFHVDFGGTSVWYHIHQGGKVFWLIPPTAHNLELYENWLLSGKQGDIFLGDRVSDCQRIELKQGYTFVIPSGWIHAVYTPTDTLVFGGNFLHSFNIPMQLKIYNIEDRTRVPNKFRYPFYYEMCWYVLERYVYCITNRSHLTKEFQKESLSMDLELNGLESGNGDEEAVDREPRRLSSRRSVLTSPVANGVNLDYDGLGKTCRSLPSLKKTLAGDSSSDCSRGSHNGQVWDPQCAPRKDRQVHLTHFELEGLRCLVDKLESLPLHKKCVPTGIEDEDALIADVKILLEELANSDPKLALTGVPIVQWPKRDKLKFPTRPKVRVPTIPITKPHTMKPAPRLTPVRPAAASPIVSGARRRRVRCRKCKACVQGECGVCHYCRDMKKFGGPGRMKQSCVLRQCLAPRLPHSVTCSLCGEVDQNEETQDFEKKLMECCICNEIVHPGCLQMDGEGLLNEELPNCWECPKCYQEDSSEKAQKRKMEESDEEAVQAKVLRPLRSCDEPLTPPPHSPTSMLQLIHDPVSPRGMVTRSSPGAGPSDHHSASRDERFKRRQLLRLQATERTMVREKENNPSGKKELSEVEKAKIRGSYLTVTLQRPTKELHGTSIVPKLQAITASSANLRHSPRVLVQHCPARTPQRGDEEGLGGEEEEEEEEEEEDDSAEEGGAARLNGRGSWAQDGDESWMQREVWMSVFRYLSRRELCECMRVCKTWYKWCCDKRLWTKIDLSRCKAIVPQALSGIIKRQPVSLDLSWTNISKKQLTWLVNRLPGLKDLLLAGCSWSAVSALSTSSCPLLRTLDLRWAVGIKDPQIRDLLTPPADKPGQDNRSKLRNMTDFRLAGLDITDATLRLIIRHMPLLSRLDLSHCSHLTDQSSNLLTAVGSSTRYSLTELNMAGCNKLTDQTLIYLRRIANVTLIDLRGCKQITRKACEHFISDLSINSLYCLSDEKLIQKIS
Test: Binding affinity to recombinant 6xHis-tagged JHDM1A (unknown origin) expressed in Escherichia coli BL21 by fluorescence polarization assay
Recorded endpoint: pKd
Worth noting: pKd values are minus log10 of concentrations stated in mol/L.

Quickly give me recorded pKd for NCc1ccc(CN(CCCCN(O)C(=O)/C=C/C(=O)O)C(=S)Nc2ccc(-c3c4ccc(=O)cc-4oc4cc(O)ccc34)c(C(=O)O)c2)cc1 7.72

Taken from ChEMBL document CHEMBL2390894.
